FYI, the data here is from patent US20260042764A1.

The molecules listed here are annotated with their IC50.
target: Avi-KRAS G12R (1-169) GppNHp/RAF1 RBD-3xFLAG (52-151) (Homo sapiens, UniProt P01116, G12R); construct: Avi-KRAS G12R (1-169); assay: Raf1-KRAS G12R-GppNHP disruption HTRF assay (Biological Example 1); format: binding; settings: KRAS G12R, GppNHp-loaded; class symbols
Sequence (P01116 1-169 isoform P01116-2 G12R): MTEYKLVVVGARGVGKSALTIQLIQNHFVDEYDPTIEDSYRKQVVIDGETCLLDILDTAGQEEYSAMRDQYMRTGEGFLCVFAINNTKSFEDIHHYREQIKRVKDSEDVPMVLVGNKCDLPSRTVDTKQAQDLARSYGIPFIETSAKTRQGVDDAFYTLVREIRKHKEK

Some molecules with known IC50 results, for comparison:
molecule	observed-measurement
COC(=O)N1CC[C@H]2[C@@H]1CN2c1nc(OC[C@@]23CCCN2C[C@H](F)C3)nc2c(F)c(-c3ccc(F)c4sc(N)c(C#N)c34)c(C(F)(F)F)cc12 (atropisomer, axis not shown) [Compound 716]	> 10 µM
CCN(c1nc(OC[C@@]23CCCN2C[C@H](F)C3)nc2c(F)c(-c3ccc(F)c4sc(N)c(C#N)c34)c(C(F)(F)F)cc12)[C@H]1CCN(C(=O)N(C)C2CC2)C1 (atropisomer, axis not shown) [Compound 583]	< 0.1 µM

Look up and state reported IC50 for CCN(c1nc(OC[C@@]23CCCN2C[C@H](F)C3)nc2c(F)c(-c3ccc(F)c4sc(N)c(C#N)c34)c(C(F)(F)F)cc12)[C@H]1CCN(C(=O)C2CC2)[C@@H]1C (atropisomer, axis not shown) [Compound 579]
< 0.1 µM

Tell us which IC50 value is on record for N#Cc1c(N)sc2c(F)ccc(-c3c(C(F)(F)F)cc4c(N(C5CC5)[C@H]5CCN(C(=O)N6CC(F)C6)C5)nc(OC[C@@]56CCCN5C[C@H](F)C6)nc4c3F)c12 (atropisomer, axis not shown) [Compound 813]
0.1 to 1 µM

Provide IC50 value for the following molecule: C[C@@H](c1cccnc1N)N(C)c1nc(OC[C@@]23CCCN2C[C@H](F)C3)nc2c(F)c(-c3ccc(F)c4sc(N)c(C#N)c34)c(C(F)(F)F)cc12 (atropisomer, axis not shown) [Compound 601]
0.1 to 1 µM

Supply IC50 value. Item: CCN(c1nc(OC[C@@]23CCCN2C[C@H](F)C3)nc2c(F)c(-c3ccc(F)c4sc(N)c(C#N)c34)c(C(F)(F)F)cc12)[C@H]1C[C@@H](COC)N(C(C)=O)C1 (atropisomer, axis not shown) [Compound 632]
0.1 to 1 µM

Return value of IC50 for input C[C@H]1Cn2nnc(C#N)c2CN1c1nc(OC[C@@]23CCCN2C[C@H](F)C3)nc2c(F)c(-c3ccc(F)c4sc(N)c(C#N)c34)c(C(F)(F)F)cc12 (atropisomer, axis not shown) [Compound 625] , no commentary.
1 to 10 µM

Please supply the value of reported IC50 for the item CCN(c1nc(OC[C@@]23CCCN2C[C@H](F)C3)nc2c(F)c(-c3ccc(F)c4sc(N)c(C#N)c34)c(C(F)(F)F)cc12)[C@H]1CCN(C(=O)[C@@H]2CCO2)C1 (atropisomer, axis not shown) [Compound 603]
< 0.1 µM

---

target: Avi-KRAS WT (1-169) GppNHp/RAF1 RBD-3xFLAG (52-151) (Homo sapiens, UniProt P01116); construct: Avi-KRAS WT (1-169); assay: Raf1-KRAS WT-GppNHP disruption HTRF assay (Biological Example 1); format: binding; details: KRAS WT, GppNHp-loaded; Table 11
Sequence (P01116 1-169 isoform P01116-2): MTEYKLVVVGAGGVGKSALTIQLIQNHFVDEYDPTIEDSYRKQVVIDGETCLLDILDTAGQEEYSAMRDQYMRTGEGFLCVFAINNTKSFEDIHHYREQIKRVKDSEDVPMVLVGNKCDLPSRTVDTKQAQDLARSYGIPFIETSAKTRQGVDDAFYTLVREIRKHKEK
pIC50: −log10 of the molar value.
# reported pIC50; entries follow

compound	observed-measurement
CN(CCO)c1nc(OC[C@@]23CCCN2C[C@H](F)C3)nc2c(F)c(-c3ccc(F)c4sc(N)c(C#N)c34)c(C(F)(F)F)cc12	6.00 to 7.00
N#Cc1c(N)sc2c(F)ccc(-c3c(C(F)(F)F)cc4c(N5CC[C@@H]5CO)nc(OC[C@@]56CCCN5C[C@H](F)C6)nc4c3F)c12	> 7.00
N#Cc1c(N)sc2c(F)ccc(-c3c(C(F)(F)F)cc4c(N5CC(CO)C5)nc(OC[C@@]56CCCN5C[C@H](F)C6)nc4c3F)c12	6.00 to 7.00
C[C@]1(O)CCCN(c2nc(OC[C@@]34CCCN3C[C@H](F)C4)nc3c(F)c(-c4ccc(F)c5sc(N)c(C#N)c45)c(C(F)(F)F)cc23)C1	6.00 to 7.00
C[C@@H](O)CN(C)c1nc(OC[C@@]23CCCN2C[C@H](F)C3)nc2c(F)c(-c3ccc(F)c4sc(N)c(C#N)c34)c(C(F)(F)F)cc12	6.00 to 7.00

// switching to the query compound
Quickly give me recorded pIC50 for Nc1nc2c(-c3c(C(F)(F)F)cc4c(N[C@H]5C[C@@H](O)C5)nc(OCC56CCCN5CCC6)nc4c3F)ccc(F)c2s1 (atropisomer, axis not shown)
5.00 to 6.00

---

test system: SW620 cells (KRAS G12V); assay: Cell-based pERK HTRF assay in SW620 cell (Biological Example 4); conditions: SW620 (KRAS G12V) cells
pIC50: −log10 of the molar value.
# key: entry, value: pIC50

Completed entries (count: 4):
compound	pIC50
CCN(c1nc(OC[C@@]23CCCN2C[C@H](F)C3)nc2c(F)c(-c3ccc(F)c4sc(N)c(C#N)c34)c(C(F)(F)F)cc12)C1C[C@H](C)N(C(=O)C2CC2)C1 (some centres unmarked) [Compound 909]	> 7.00
CCN(c1nc(OCC23CCCN2CC(F)C3)nc2c(F)c(-c3ccc(F)c4sc(N)c(C#N)c34)c(C(F)(F)F)cc12)C1CCN(C(=O)c2cnc(C#N)s2)C1 (centres unmarked) [Compound 960]	> 7.00
CCN(c1nc(OC[C@@]23CCCN2C[C@H](F)C3)nc2c(F)c(-c3ccc(F)c4sc(N)c(C#N)c34)c(C(F)(F)F)cc12)[C@@H]1CC(=O)N(C2CC2)C1 (atropisomer, axis not shown) [Compound 703]	> 7.00
Cc1c(C(=O)N(C)C)nn2c1CN(c1nc(OC[C@@]34CCCN3C[C@H](F)C4)nc3c(F)c(-c4ccc(F)c5sc(N)c(C#N)c45)c(C(F)(F)F)cc13)CC2 (atropisomer, axis not shown; (aS)) [Compound 590]	> 7.00

Next compound, pIC50 to be filled in.
Please give measured pIC50 of the following entry: CCN(c1nc(OCC23CCCN2CC(F)C3)nc2c(F)c(-c3ccc(F)c4sc(N)c(C#N)c34)c(C(F)(F)F)cc12)C1CC(C)N(C(=O)C2CC2(F)F)C1 (centres unmarked) [Compound 732]
> 7.00

---

molecular target: Avi-KRAS G12R (1-169) GppNHp/RAF1 RBD-3xFLAG (52-151) (Homo sapiens, UniProt P01116, G12R); construct: Avi-KRAS G12R (1-169); assay: Raf1-KRAS G12R-GppNHP disruption HTRF assay (Biological Example 1); assay type: binding; conditions: KRAS G12R, GppNHp-loaded; Table 11
pIC50: −log10 of the molar value.
Catalogue of pIC50 values

compound	pIC50
CN(CC(F)F)c1nc(OC[C@@]23CCCN2C[C@H](F)C3)nc2c(F)c(-c3ccc(F)c4sc(N)c(C#N)c34)c(C(F)(F)F)cc12	6.00 to 7.00
CN(c1nc(OC[C@@]23CCCN2C[C@H](F)C3)nc2c(F)c(-c3ccc(F)c4sc(N)c(C#N)c34)c(C(F)(F)F)cc12)C1CCC1	6.00 to 7.00
CN(c1nc(OC[C@@]23CCCN2C[C@H](F)C3)nc2c(F)c(-c3ccc(F)c4sc(N)c(C#N)c34)c(C(F)(F)F)cc12)[C@H]1C[C@@H](F)C1 (atropisomer, axis not shown)	6.00 to 7.00
N#Cc1c(N)sc2c(F)ccc(-c3c(C(F)(F)F)cc4c(N5CC(O)C5)nc(OC[C@@]56CCCN5C[C@H](F)C6)nc4c3F)c12	6.00 to 7.00
CN(C[C@H](F)CO)c1nc(OC[C@@]23CCCN2C[C@H](F)C3)nc2c(F)c(-c3ccc(F)c4sc(N)c(C#N)c34)c(C(F)(F)F)cc12	6.00 to 7.00

Consider the compound COC[C@H]1CCN1c1nc(OC[C@@]23CCCN2C[C@H](F)C3)nc2c(F)c(-c3ccc(F)c4sc(N)c(C#N)c34)c(C(F)(F)F)cc12 and give its recorded pIC50.
6.00 to 7.00

Supply recorded pIC50 for CC(=O)N1C[C@@H]2CCN(c3nc(OC[C@@]45CCCN4C[C@H](F)C5)nc4c(F)c(-c5ccc(F)c6sc(N)c(C#N)c56)c(C(F)(F)F)cc34)[C@@H]2C1 here.
5.00 to 6.00

For Nc1nc2c(-c3c(C(F)(F)F)cc4c(N5CCCC(O)C5)nc(OCC56CCCN5CCC6)nc4c3F)ccc(F)c2s1 (centres unmarked) , write its pIC50.
5.00 to 6.00

Identify the reported pIC50 for the following entry. CO[C@@H]1C[C@@H](COc2nc(N(C)C3CC(O)C3)c3cc(C(F)(F)F)c(-c4ccc(F)c5sc(N)c(C#N)c45)c(F)c3n2)N(C)C1 (some centres unmarked)
6.00 to 7.00

Report measured pIC50; entry is CN(CCS(C)(=O)=O)c1nc(OC[C@@]23CCCN2C[C@H](F)C3)nc2c(F)c(-c3ccc(F)c4sc(N)c(C#N)c34)c(C(F)(F)F)cc12
6.00 to 7.00

Specify reported pIC50 for the compound shown: CC(=O)NC1CN(c2nc(OC[C@@]34CCCN3C[C@H](F)C4)nc3c(F)c(-c4ccc(F)c5sc(N)c(C#N)c45)c(C(F)(F)F)cc23)C1
6.00 to 7.00
